EXPERIMENTAL SYSTEM: Beta-3 adrenergic receptor (Homo sapiens, UniProt P13945)
Sequence (P13945 whole entry, looked up): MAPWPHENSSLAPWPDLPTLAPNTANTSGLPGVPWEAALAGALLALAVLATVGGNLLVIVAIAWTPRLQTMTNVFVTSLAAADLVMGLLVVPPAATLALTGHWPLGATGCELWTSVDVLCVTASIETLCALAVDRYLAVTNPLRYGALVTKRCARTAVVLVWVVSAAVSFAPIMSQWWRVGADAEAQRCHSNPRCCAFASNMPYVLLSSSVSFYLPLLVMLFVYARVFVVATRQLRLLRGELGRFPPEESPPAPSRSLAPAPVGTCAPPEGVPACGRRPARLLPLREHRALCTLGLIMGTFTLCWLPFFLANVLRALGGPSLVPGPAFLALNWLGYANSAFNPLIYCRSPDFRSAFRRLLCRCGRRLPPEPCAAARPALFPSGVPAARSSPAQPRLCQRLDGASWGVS
MEASUREMENT NOTES: Agonist activity at human beta-3 adrenergic receptor expressed in CHO cells assessed as increase in intracellular cAMP accumulation at 10^-10 to 10^-5 M after 30 mins by time-resolved fluorescence assay relative to R-(-)isoproterenol
Format: functional, cell-based
RESULT TYPE: Activity (%)
Field format: number, assumed %, no unit text.

*Q* # get_value(readout='Activity', item= `C[C@H](C(=O)Nc1ccc(C[C@@H]2CC[C@H]([C@H](O)c3ccccc3)N2)cc1)c1csc(N)n1` )
*A* 85

*Q* Record request: Activity value, item Nc1nc(CC(=O)Nc2ccc(C[C@@H]3CCC([C@H](O)c4ccccc4)N3)cc2)cs1 (single isomer, unassigned)
*A* 92

*Q* # query: Activity of entry `Cc1nc2c(s1)CC[C@H]2C(=O)Nc1ccc(C[C@@H]2CC[C@H]([C@H](O)c3cccnc3)N2)cc1`
*A* 89

====

MEASUREMENT NOTES: Plasma clearance in Sprague-Dawley rat at 1 mg/kg, iv and 2 mg/kg, po
Type: ADME, organism-based
Each entry below carries its recorded clearance.

*Q* Dear colleague, I am looking for the recorded clearance of the following compound: `Nc1nc2c(s1)CCC[C@H]2C(=O)Nc1ccc(C[C@@H]2CC[C@H]([C@H](O)c3ccccc3)N2)cc1`
*A* 185 mL/min/kg

*Q* Could you tell me which clearance is on file for `C[C@@H](C(=O)Nc1ccc(C[C@@H]2CC[C@H]([C@H](O)c3cccnc3)N2)cc1)n1cccn1` ?
*A* 34 mL/min/kg

*Q* Need clearance of `Nc1nc2c(s1)CC[C@H]2C(=O)Nc1ccc(C[C@@H]2CC[C@H]([C@H](O)c3cccnc3)N2)cc1` , thanks.
*A* 32 mL/min/kg

***
*Q* So what does the record say about clearance for Nc1nc(CC(=O)Nc2ccc(C[C@@H]3CCC([C@H](O)c4ccccc4)N3)cc2)cs1 (single isomer, unassigned) ?
*A* 11 mL/min/kg

*Q* Any idea what its clearance is? The compound is `O=C(Nc1ccc(C[C@@H]2CC[C@H]([C@H](O)c3ccccc3)N2)cc1)[C@@H]1CCc2scnc21`
*A* 80 mL/min/kg

*Q* Which clearance reading was recorded for the compound `Cc1nc2c(s1)CC[C@H]2C(=O)Nc1ccc(C[C@@H]2CC[C@H]([C@H](O)c3cccnc3)N2)cc1` ?
*A* 25 mL/min/kg

====

MEASUREMENT NOTES: Intrinsic clearance in monkey liver microsomes
Type: ADME, Macaca mulatta, Microsome
COND: rhesus monkey, read-out: CLH
RESULT TYPE: CLint scaled
A bare number is not enough; add the unit after it.

*Q* I'd like to know its CLint scaled. The molecule in question is `O=C(Nc1ccc(C[C@@H]2CC[C@H]([C@H](O)c3cccnc3)N2)cc1)[C@@H]1CCc2ccnn21`
*A* 261 mL/min/kg

Next molecule, CLint scaled to be filled in.
*Q* Bench note: what CLint scaled did `O=C(Nc1ccc(C[C@@H]2CC[C@H]([C@H](O)c3cccnc3)N2)cc1)[C@@H]1CCc2scnc21` show?
*A* 205 mL/min/kg

====

MEASUREMENT NOTES: Fraction unbound in rhesus monkey plasma at 3 mg/kg, iv
Assay type: ADME, organism-based, Macaca mulatta
Set-up: dose 3 mg/kg, route intravenous
RESULT TYPE: fraction unbound
Field format: numeric only.

*Q* Given the entry `O=S(=O)(Nc1ccc(CCNC[C@H](O)c2cccnc2)cc1)c1ccc(-c2nc(-c3ccc(C(F)(F)F)cc3)cs2)cc1` , report its measured fraction unbound.
*A* 0.02

====

MEASUREMENT NOTES: Oral bioavailability in Sprague-Dawley rat at 2 mg/kg
Type: ADME, organism-based
COND: in vivo
RESULT TYPE: bioavailability (%)
Give your result in % as a bare value.

// below: answered compounds
*Q* # query: bioavailability of entry `O=C(Nc1ccc(C[C@@H]2CC[C@H]([C@H](O)c3ccccc3)N2)cc1)[C@@H]1CCc2scnc21`
*A* 12

*Q* Which bioavailability value is on record for `Nc1nc2c(s1)CC[C@H]2C(=O)Nc1ccc(C[C@@H]2CC[C@H]([C@H](O)c3cccnc3)N2)cc1` ?
*A* 0

*Q* Could you tell me which bioavailability is on file for `C[C@@H](C(=O)Nc1ccc(C[C@@H]2CC[C@H]([C@H](O)c3cccnc3)N2)cc1)n1cccn1` ?
*A* 29

---
*Q* Which bioavailability value is on record for `O=C(Nc1ccc(C[C@@H]2CC[C@H]([C@H](O)c3cccnc3)N2)cc1)[C@@H]1CCc2scnc21` ?
*A* 41

====

MEASUREMENT NOTES: Apparent permeability in MDCK2 cells
Assay type: ADME, cell-based, Canis lupus familiaris, MDCK-II
COND: dog, MDCK
Use 6 ×10⁻⁶ cm/s as the dividing line for Papp, with the line itself on the rule met side and lower values as rule not met.

*Q* Does Papp meet or surpass 6 ×10⁻⁶ cm/s for `Cc1nc2c(s1)CC[C@H]2C(=O)Nc1ccc(C[C@@H]2CC[C@H]([C@H](O)c3ccccc3)N2)cc1` ?
*A* rule met

Continuing:
*Q* Decide: Papp of `Nc1nc2c(s1)CC[C@H]2C(=O)Nc1ccc(C[C@@H]2CC[C@H]([C@H](O)c3cccnc3)N2)cc1` >= 6 ×10⁻⁶ cm/s?
*A* rule not met

*Q* Quick check: does `Nc1nc2c(s1)CCC[C@H]2C(=O)Nc1ccc(C[C@@H]2CC[C@H]([C@H](O)c3ccccc3)N2)cc1` have Papp greater than or equal to 6 ×10⁻⁶ cm/s?
*A* rule not met

*Q* State whether the measured Papp reaches 6 ×10⁻⁶ cm/s, counting equality as reaching it, for `Nc1nc2c(s1)CC[C@H]2C(=O)Nc1ccc(C[C@@H]2CC[C@H]([C@H](O)c3ccccc3)N2)cc1`
*A* rule not met

*Q* Decide: Papp of `O=C(Nc1ccc(C[C@@H]2CC[C@H]([C@H](O)c3ccccc3)N2)cc1)[C@@H]1CCc2scnc21` >= 6 ×10⁻⁶ cm/s?
*A* rule met

*Q* Is the recorded value of Papp equal to or greater than 6 ×10⁻⁶ cm/s for this molecule? `O=C(Nc1ccc(C[C@@H]2CC[C@H]([C@H](O)c3cccnc3)N2)cc1)[C@@H]1CCc2scnc21`
*A* rule met

*Q* Does the molecule Nc1nc(CC(=O)Nc2ccc(C[C@@H]3CCC([C@H](O)c4ccccc4)N3)cc2)cs1 (single isomer, unassigned) have recorded Papp that is 6 ×10⁻⁶ cm/s or more?
*A* rule not met

*Q* Reported Papp at or above 6 ×10⁻⁶ cm/s? `Cc1nc2c(s1)CC[C@H]2C(=O)Nc1ccc(C[C@@H]2CC[C@H]([C@H](O)c3cccnc3)N2)cc1`
*A* rule met

====

MEASUREMENT NOTES: Intrinsic clearance in dog liver microsomes
Assay type: ADME, Canis lupus familiaris
COND: read-out: CLH
RESULT TYPE: CLint scaled (mL/min/kg)
The response must be a number in mL/min/kg with no trailing unit.

*Q* Which CLint scaled is reported for this compound? `O=C(Nc1ccc(C[C@@H]2CC[C@H]([C@H](O)c3cccnc3)N2)cc1)[C@@H]1CCc2ccnn21`
*A* 31

====

Measured fraction unbound accompanies every entry in the list below.
MEASUREMENT NOTES: Fraction unbound in Sprague-Dawley rat plasma at 1 mg/kg, iv and 2 mg/kg, po
Format: ADME, organism-based
COND: Sprague-Dawley, plasma

*Q* For `O=C(Nc1ccc(C[C@@H]2CC[C@H]([C@H](O)c3cccnc3)N2)cc1)[C@@H]1CCc2scnc21` , what is its reported fraction unbound?
*A* 0.19

*Q* Query: fraction unbound; subject: `O=C(Nc1ccc(C[C@@H]2CC[C@H]([C@H](O)c3ccccc3)N2)cc1)[C@@H]1CCc2scnc21`
*A* 0.1

Continuing:
*Q* Using the record for `O=C(Nc1ccc(C[C@@H]2CC[C@H]([C@H](O)c3cccnc3)N2)cc1)[C@@H]1CCc2ccnn21` , report its fraction unbound.
*A* 0.36

*Q* # fraction unbound lookup, item `Nc1nc2c(s1)CCC[C@H]2C(=O)Nc1ccc(C[C@@H]2CC[C@H]([C@H](O)c3ccccc3)N2)cc1`
*A* 0.14

*Q* Report fraction unbound for Nc1nc(CC(=O)Nc2ccc(C[C@@H]3CCC([C@H](O)c4ccccc4)N3)cc2)cs1 (single isomer, unassigned) please.
*A* 0.06

*Q* Fill in the blank: the reported fraction unbound of `Cc1nc2c(s1)CC[C@H]2C(=O)Nc1ccc(C[C@@H]2CC[C@H]([C@H](O)c3ccccc3)N2)cc1` is ____.
*A* 0.05

*Q* Request the reported fraction unbound associated with `Nc1nc2c(s1)CC[C@H]2C(=O)Nc1ccc(C[C@@H]2CC[C@H]([C@H](O)c3ccccc3)N2)cc1`
*A* 0.18

*Q* Would you kindly share the measured fraction unbound for `Cc1nc2c(s1)CC[C@H]2C(=O)Nc1ccc(C[C@@H]2CC[C@H]([C@H](O)c3cccnc3)N2)cc1` ?
*A* 0.11

Numbers sourced from ChEMBL document CHEMBL3124772.
